# system under test: T1, human Fibroblast Activation Protein (FAP), soluble antigen (human, UniProt Q12884 26-760, biotinylated when immobilized on streptavidin sensors)
# T1 construct: also called hFAP; biotinylated FAP
# T1 sequence (Q12884 26-760 limits assumed): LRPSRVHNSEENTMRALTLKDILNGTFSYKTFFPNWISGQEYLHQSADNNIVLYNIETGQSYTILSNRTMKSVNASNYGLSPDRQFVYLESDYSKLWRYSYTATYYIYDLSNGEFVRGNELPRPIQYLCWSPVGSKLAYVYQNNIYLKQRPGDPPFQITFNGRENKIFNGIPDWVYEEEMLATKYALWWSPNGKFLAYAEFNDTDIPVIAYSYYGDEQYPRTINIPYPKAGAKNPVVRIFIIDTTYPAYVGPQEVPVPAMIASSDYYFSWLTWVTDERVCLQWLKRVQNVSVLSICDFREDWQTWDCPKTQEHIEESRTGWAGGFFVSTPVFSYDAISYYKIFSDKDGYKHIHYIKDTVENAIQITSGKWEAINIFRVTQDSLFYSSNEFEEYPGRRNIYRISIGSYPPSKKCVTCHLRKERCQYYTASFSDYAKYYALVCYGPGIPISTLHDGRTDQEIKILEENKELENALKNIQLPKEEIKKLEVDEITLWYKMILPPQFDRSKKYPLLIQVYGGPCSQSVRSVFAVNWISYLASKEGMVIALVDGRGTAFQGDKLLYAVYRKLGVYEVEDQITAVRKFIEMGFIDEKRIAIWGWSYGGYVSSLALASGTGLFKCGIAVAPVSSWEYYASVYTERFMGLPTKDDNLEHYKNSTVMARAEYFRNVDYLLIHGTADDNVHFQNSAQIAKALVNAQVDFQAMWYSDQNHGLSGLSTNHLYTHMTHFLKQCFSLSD
# procedure details: BLI per 6.1.3, human FAP;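 also: biolayer interferometry with immobilized antigen on sensors, antibody association up to 240 s then dissociation up to 420 s, reference-subtracted, global 1:1 fit with unlinked Rmax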
measurement label: Kd
Answer with the value and then the unit.

The measured Kd associated with 872-5 VL A91G (antibody, V domains shown, BLI per 6.1.3 (monovalent Fab-Fc)) VH: EVQLVESGGGLVQPGGSLRLSCAASGFTFRGYIMSWVRQAPGKGLEWVSWISPEGSRTGYADSVKGRFTISRDNSKNTLYLQMNSLRAEDTAVYYCARLQYGTWFDYWGQGTLVTVSS VL: DIQMTQSPSSLSASVGDRVTITCRASQSISSYLNWYQQKPGKAPKLLIYAASSLQSGVPSRFSGSGSGTDFTLTISSLQPEDFATYYCQQGTLLLPTFGQGTKVEIKR reads 0.78 nM

// field: Kd; key: 872-5 VH Q96L:VL A91G/T92R (antibody, V domains shown, BLI per 6.1.3) VH: EVQLVESGGGLVQPGGSLRLSCAASGFTFRGYIMSWVRQAPGKGLEWVSWISPEGSRTGYADSVKGRFTISRDNSKNTLYLQMNSLRAEDTAVYYCARLLYGTWFDYWGQGTLVTVSS VL: DIQMTQSPSSLSASVGDRVTITCRASQSISSYLNWYQQKPGKAPKLLIYAASSLQSGVPSRFSGSGSGTDFTLTISSLQPEDFATYYCQQGRLLLPTFGQGTKVEIKR ; value = 0.707 nM

// Kd value for 872-5 VL A91G/T92R (antibody, V domains shown, BLI per 6.1.3) VH: EVQLVESGGGLVQPGGSLRLSCAASGFTFRGYIMSWVRQAPGKGLEWVSWISPEGSRTGYADSVKGRFTISRDNSKNTLYLQMNSLRAEDTAVYYCARLQYGTWFDYWGQGTLVTVSS VL: DIQMTQSPSSLSASVGDRVTITCRASQSISSYLNWYQQKPGKAPKLLIYAASSLQSGVPSRFSGSGSGTDFTLTISSLQPEDFATYYCQQGRLLLPTFGQGTKVEIKR : 0.398 nM

# binder 872-5 VL T92R (antibody, V domains shown, BLI per 6.1.3) VH: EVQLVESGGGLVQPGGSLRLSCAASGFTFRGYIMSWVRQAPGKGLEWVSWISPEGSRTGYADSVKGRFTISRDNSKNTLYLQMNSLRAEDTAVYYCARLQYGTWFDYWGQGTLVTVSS VL: DIQMTQSPSSLSASVGDRVTITCRASQSISSYLNWYQQKPGKAPKLLIYAASSLQSGVPSRFSGSGSGTDFTLTISSLQPEDFATYYCQQARLLLPTFGQGTKVEIKR ; its Kd = 1.6 nM

Reported Kd for 872-5 VH S52G/Q96L (antibody, V domains shown, BLI per 6.1.3) VH: EVQLVESGGGLVQPGGSLRLSCAASGFTFRGYIMSWVRQAPGKGLEWVSWIGPEGSRTGYADSVKGRFTISRDNSKNTLYLQMNSLRAEDTAVYYCARLLYGTWFDYWGQGTLVTVSS VL: DIQMTQSPSSLSASVGDRVTITCRASQSISSYLNWYQQKPGKAPKLLIYAASSLQSGVPSRFSGSGSGTDFTLTISSLQPEDFATYYCQQATLLLPTFGQGTKVEIKR was 0.251 nM
